Tested on: HT-29
experimental.protocol: Cytotoxicity against human HT29 cells after 48 hrs by SRB assay
Format: functional, cell-based
setup.conditions: Homo sapiens, HT-29, 48 h; read-out: LC50 (the source's name)
quantity.kind: CC50 (µM)
Give bare numbers, in µM.

C/C=C1\NC(=O)[C@H](CCC2CCCCC2)NC(=O)[C@@H](C(C)C)NC(=O)[C@@H]([C@@H](C)CC)NC(=O)[C@H](NC(=O)[C@H](NC(=O)[C@H](CCCN)NC(=O)[C@H]2CCCN2C(=O)[C@H](NC(=O)[C@@H](NC(=O)[C@@H](NC(=O)[C@H](NC(=O)CCCC(C)C)C(C)C)[C@@H](C)O)C(C)C)C(C)C)[C@@H](C)CC)[C@@H](C)OC(=O)[C@H](C(C)C)NC1=O: 0.359

Reported CC50 for C/C=C1\NC(=O)[C@H](Cc2ccccc2)NC(=O)[C@@H](C(C)C)NC(=O)[C@@H]([C@H](C)CC)NC(=O)[C@H](NC(=O)[C@H](NC(=O)[C@H](CCCN)NC(=O)[C@H]2Cc3ccccc3CN2C(=O)[C@H](NC(=O)[C@@H](NC(=O)[C@@H](NC(=O)[C@H](NC(=O)CC[C@@H](C)CC)C(C)C)[C@@H](C)O)C(C)C)C(C)C)[C@H](C)CC)[C@H](C)OC(=O)[C@H](C(C)C)NC1=O : what is it?
0.426

* * *

Assignment: determine reported GI50 for the given compounds.
Test system: LNCaP
experimental.protocol: Cytotoxicity against human LNcaP cells after 48 hrs by SRB assay
Format: functional
One number for each entry, in nM.

Worked cases, answers included:
C/C=C1\NC(=O)[C@H](Cc2ccccc2)NC(=O)[C@@H](C(C)C)NC(=O)[C@@H]([C@H](C)CC)NC(=O)[C@H](NC(=O)[C@H](NC(=O)[C@H](CCCN)NC(=O)[C@H]2CCCN2C(=O)[C@H](NC(=O)[C@@H](NC(=O)[C@H](CCCN)NC(=O)[C@H](NC(=O)CCCC(C)C)C(C)C)C(C)C)C(C)C)[C@H](C)CC)[C@H](C)OC(=O)[C@H](C(C)C)NC1=O: 675
C/C=C1\NC(=O)[C@H](Cc2ccccc2)NC(=O)[C@@H](C(C)C)NC(=O)[C@@H]([C@H](C)CC)NC(=O)[C@H](NC(=O)[C@H](NC(=O)[C@H](CCCN)NC(=O)[C@H]2CCCN2C(=O)[C@H](NC(=O)[C@@H](NC(=O)[C@@H](NC(=O)[C@@H](NC(=O)CCCC(C)C)C(C)C)[C@@H](C)O)C(C)C)C(C)C)[C@H](C)CC)[C@H](C)OC(=O)[C@H](C(C)C)NC1=O: 853
C/C=C1\NC(=O)[C@H](Cc2ccccc2)NC(=O)[C@@H](C(C)C)NC(=O)[C@@H]([C@H](C)CC)NC(=O)[C@H](NC(=O)[C@H](NC(=O)[C@H](CCCN)NC(=O)[C@H]2CCCN2C(=O)[C@H](NC(=O)[C@@H](NC(=O)[C@@H](NC(=O)[C@H](NC(=O)CCCC(C)C)C(C)C)C(C)C)C(C)C)C(C)C)[C@H](C)CC)[C@H](C)OC(=O)[C@H](C(C)C)NC1=O: 334
C/C=C1\NC(=O)[C@H](Cc2ccccc2)NC(=O)[C@@H](C(C)C)NC(=O)[C@@H]([C@H](C)CC)NC(=O)[C@H](NC(=O)[C@H](NC(=O)[C@H](CCCN)NC(=O)[C@H]2CCCN2C(=O)[C@H](NC(=O)[C@@H](NC(=O)[C@@H](NC(=O)[C@H](NC(=O)C2CCC(C)CC2)C(C)C)[C@@H](C)O)C(C)C)C(C)C)[C@H](C)CC)[C@H](C)OC(=O)[C@H](C(C)C)NC1=O (stereo not given in full): 1070

Bench note: what GI50 did C/C=C1\NC(=O)[C@H](Cc2ccccc2)NC(=O)[C@@H](C(C)C)NC(=O)[C@@H]([C@H](C)CC)NC(=O)[C@H](NC(=O)[C@H](NC(=O)[C@H](CCCN)NC(=O)[C@H]2CCCN2C(=O)[C@H](NC(=O)[C@H](Cc2ccccc2)NC(=O)[C@@H](NC(=O)[C@H](NC(=O)CCCC(C)C)C(C)C)[C@@H](C)O)C(C)C)[C@H](C)CC)[C@H](C)OC(=O)[C@H](C(C)C)NC1=O show?
857
